Biological target: T1, OsSMF1 (RISBZ1, OsbZIP58)-DsRed fusion (Oryza sativa cv. Ilmi, UniProt Q6ZLB0 1-436)
T1 sequence: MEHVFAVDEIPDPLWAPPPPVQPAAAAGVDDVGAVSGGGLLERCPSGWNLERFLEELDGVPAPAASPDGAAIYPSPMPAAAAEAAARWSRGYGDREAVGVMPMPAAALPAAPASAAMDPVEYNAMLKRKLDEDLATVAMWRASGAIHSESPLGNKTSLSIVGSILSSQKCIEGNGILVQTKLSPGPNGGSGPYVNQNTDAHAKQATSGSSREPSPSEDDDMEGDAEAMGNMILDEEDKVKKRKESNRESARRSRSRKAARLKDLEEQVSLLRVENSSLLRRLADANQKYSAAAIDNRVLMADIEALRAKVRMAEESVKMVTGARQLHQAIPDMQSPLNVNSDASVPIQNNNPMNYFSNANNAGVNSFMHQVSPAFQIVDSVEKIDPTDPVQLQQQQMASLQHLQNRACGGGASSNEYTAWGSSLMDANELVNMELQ
Assay: EMSA (SYBR Gold); 5 mM MgCl2; Kd EMSA: 10 mM Tris, 50 mM KCl, 1 mM DTT pH 7.5, 50 ng/ul poly(dI-dC), 2.5% glycerol, 0.05% NP-40, 5 mM MgCl2, 0.2 ug/ul OsSMF1, DNA 0-6 uM, 1 h room temperatur
Conditions: protein: recombinant; tags: DsRed fusion; Ni-NTA purified; chain copies: 2; SYBR Gold stain (Kd); 21 bp
pKd: −log10 of the molar value.
List of pKd values.
Outcome Measure: pKd

{"Binder": "GCN4 21-bp wild type (dsDNA) DNA 1: GTTTGTCATGGCTGAGTCATG DNA 2: CATGACTCAGCCATGACAAAC", "Test Result": 6.19}
{"Binder": "ATGA 21-bp wild type (dsDNA) DNA 1: CTGATTCGGATGACGGACGAA DNA 2: TTCGTCCGTCATCCGAATCAG", "Test Result": 5.95}
{"Binder": "ACGT 21-bp wild type (dsDNA) DNA 1: AAGCGCCACGTCAGCCAAAAC DNA 2: GTTTTGGCTGACGTGGCGCTT", "Test Result": 6.47}
